Biological target: T1, cynomolgus monkey CTLA4-his protein (Acro biosystems, Cat#CT4-C5227) (cynomolgus monkey, UniProt G7PL88 36-161)
T1 construct: bought recombinant protein; also called Cynomolgus CTLA4-his; not shown: his tag
T1 sequence: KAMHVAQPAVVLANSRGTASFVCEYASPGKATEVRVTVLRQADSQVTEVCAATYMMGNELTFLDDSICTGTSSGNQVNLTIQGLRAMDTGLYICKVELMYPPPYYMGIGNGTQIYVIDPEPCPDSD
Assay: SPR, Biacore T200; antibody captured, CTLA4-his as analyte
Metric Name: koff (s⁻¹)
Give the number; s⁻¹ is assumed, so skip it.

Here's what some known entries look like.
Binder	koff, s⁻¹
mouse anti-CTLA4 monoclonal antibody D1H3 (antibody, V domains shown, mouse mAb purified from hybridoma supernatant) VH: QVQLQQPGAELVNPGASVKLSCKASGYTFTSYWLHWVKQRPGRGLEWIGRIDPNRGTIYYNEKFNNKATVTVDKPSNTAYMQLSRLTLEDSAVYYCARGGSNFYAMDYWGQGTSVTVSS VL: DIQMTQSPASLSASVGETVTITCRTSENIYSYLAWYQQKQGESPQLLVYNAKTLAEGVPSRFSGSGSGTQFSLKINSLQPEDFGSYYCQNHDGIPFTFGSGTKLEIK	0.000601
mouse anti-CTLA4 monoclonal antibody D2A4 (antibody, V domains shown, mouse mAb purified from hybridoma supernatant) VH: QVQLQQPGAELVKPGSSVNLSCKASGYTFTSYWVHWVKQGPGRGLEWIGRIDPNRGGTYYNENFKTKAALTVDSPSSTAYMHLSSLTSEDSAVYYCARGGLNYYALDYWGQGTSVTVSS VL: DIQMTQSPASLFASLGETVTITCRASENIYSYLAWYQQKQGKSPQLLVYNANTLTEGVPSSFSGSGSGTQFSLKINTLQPEDFGTYYCQHHYGIPFTFGSGTKLEIK	0.00076
mouse anti-CTLA4 monoclonal antibody C1G4 (antibody, V domains shown, mouse mAb purified from hybridoma supernatant) VH: EVKLDETGGGLVQPGRPIKLSCVASGFTFSDNWMNWVRQSPEKGLEWVAQIRNKPYNYETYYSDSVKGRFTISRDDSKSSVYLQMNNLRTKDMGIYYCTGGFTYWGQGTLVTVSA VL: DIQMTQSPPSLSASVGETVTITCGASENIYGGLNWYQRKQGKSPQLLIYGATNLADGMSSRFSGSGSGRQYSLKISRLHPDDVATYYCQNVLNTPYTFGGGTKLEIK	0.00077

Now for a further binder.
Req: Return reported koff; argument: mouse anti-CTLA4 monoclonal antibody D1A7 (antibody, V domains shown, mouse mAb purified from hybridoma supernatant) VH: QVTLKESGPGMLQPSQTLSLTCSFSGFSLSSSKLGVGWIRQPAGKGLEWLAHIWWNDDNYYVPSLKSRLTISKDTSNNQVFLKITNVDAADTATYYCVQVPYYTTQPWFAYWGQGTLVTVSA VL: DIQMTQSPASLSASVGETVTITCRASGNIHNYLAWYLQNQGRSPQLLVYNTETLADGVSSRFSGSGSGTQYFLKISSLQPEDFGTYYCQHLWSTPWTFGGGTKLEIK
Resp: 0.00137
